Measured pEC50 values are reported for all entries that follow.
Molecular target: rat pituitary cells (Rattus norvegicus, UniProt O08725)
Sequence (O08725 whole entry): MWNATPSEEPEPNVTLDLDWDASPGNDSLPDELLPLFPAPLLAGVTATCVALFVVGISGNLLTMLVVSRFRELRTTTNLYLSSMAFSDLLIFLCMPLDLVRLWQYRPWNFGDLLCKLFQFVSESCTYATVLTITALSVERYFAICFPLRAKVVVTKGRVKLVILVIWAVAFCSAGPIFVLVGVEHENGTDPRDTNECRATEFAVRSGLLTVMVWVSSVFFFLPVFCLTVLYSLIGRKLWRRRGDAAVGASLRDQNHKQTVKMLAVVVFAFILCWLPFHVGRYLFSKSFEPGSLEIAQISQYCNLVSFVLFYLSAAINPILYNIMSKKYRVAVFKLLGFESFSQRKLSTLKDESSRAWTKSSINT
Settings: read-out: PIT Cell EC50; Table III, formula IV compounds; GH release, 15 min incubation
Starred links: 1 amine or outer side, 2 acyl side, 3 side chain; linkers in the order of their positions; H or OH if unused. Non-standard residues stand in square brackets, D forms with d. Residues, ends and D or L forms follow the SMILES beside them. ξ: configuration not given here. d2Nal = N[C@H](Cc1ccc2ccccc2c1)C(=O)O; ξ2Nal = NC(Cc1ccc2ccccc2c1)C(=O)O; NMeGABA = CN(CCCC(=O)[*:2])[*:1]; Inp = O=C(O)C1CCNCC1; ξK = NCCCCC(N)C(=O)O
Schema: pEC50 number; meaning minus log10 of the concentration expressed in molar units.

>>> reported_measurement("CNC(=O)[C@H](Cc1ccccc1)NC(=O)[C@@H](Cc1ccc2ccccc2c1)NC(=O)[C@@H](Cc1ccc2ccccc2c1)NC(=O)C1CCNCC1 [(inip) b b F mam] (H-[Inp][d2Nal][d2Nal]F-NHMe)")
8.70

Would you please give the reported pEC50 of CNCCCC(=O)NC(Cc1ccc2ccccc2c1)C(=O)N[C@H](Cc1ccc2ccccc2c1)C(=O)N[C@@H](Cc1ccccc1)C(=O)NC(CCCCN)C(N)=O (stereo partly drawn) [(mab) b b F K amide] (NMeGABA-[ξ2Nal][d2Nal]F[ξK]-NH2) with rat pituitary cells (Rattus norvegicus, UniProt O08725)?
8.85
